Just for reference, ChEMBL document CHEMBL3392976 is where these values come from.

experiment: in vivo; details: Sprague-Dawley, rat, iv, 2 mg/kg

>  <input.smiles>
Fc1cccc(F)c1-c1ccc2[nH]nc(-c3cncc(O[C@H]4CNCCC45CC5)n3)c2c1

>  <reading.unit>
h

>  <half-life>
2.7

$$$$

---

assay: in vivo; details: Sprague-Dawley, rat, iv, 2 mg/kg

>  <input.smiles>
Fc1cccc(F)c1-c1ccc2[nH]nc(-c3cncc(O[C@H]4CNCCC45CC5)n3)c2c1

>  <reading.unit>
L/kg

>  <Vd>
3.7

$$$$

---

test: in vivo; details: Sprague-Dawley, rat, po, 5 mg/kg
property.measured: bioavailability (%)

>  <input.smiles>
Fc1cccc(F)c1-c1ccc2[nH]nc(-c3cncc(O[C@H]4CNCCC45CC5)n3)c2c1

>  <property.measured>
bioavailability

>  <obs.value>
89

$$$$
